Experimental target: SERT (Rattus norvegicus)
Construct: Membranes from frozen rat midbrain were homogenized; from tissue; host or cells: rat midbrain membranes
Sequence (P31652 whole entry): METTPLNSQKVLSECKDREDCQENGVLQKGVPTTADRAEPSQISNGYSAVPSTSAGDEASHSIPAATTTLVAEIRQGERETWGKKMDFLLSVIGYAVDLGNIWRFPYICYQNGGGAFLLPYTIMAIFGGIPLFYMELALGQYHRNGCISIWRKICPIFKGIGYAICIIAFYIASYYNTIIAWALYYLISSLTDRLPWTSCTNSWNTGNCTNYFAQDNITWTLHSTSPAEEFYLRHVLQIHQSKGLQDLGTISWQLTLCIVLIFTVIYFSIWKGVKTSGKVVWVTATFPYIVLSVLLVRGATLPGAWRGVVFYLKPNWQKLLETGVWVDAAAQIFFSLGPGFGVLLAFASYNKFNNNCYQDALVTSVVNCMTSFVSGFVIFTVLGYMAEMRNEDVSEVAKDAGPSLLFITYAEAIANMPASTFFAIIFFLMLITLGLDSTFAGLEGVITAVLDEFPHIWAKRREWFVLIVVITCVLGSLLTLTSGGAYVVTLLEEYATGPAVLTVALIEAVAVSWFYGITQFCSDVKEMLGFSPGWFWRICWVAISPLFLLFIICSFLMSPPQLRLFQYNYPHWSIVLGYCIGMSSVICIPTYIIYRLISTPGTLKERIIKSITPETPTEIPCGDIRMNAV
Protocol notes: [3H]Citalopram Binding Assay, rat midbrain membranes
Condition details: rat brain membranes; read-out: SERT [3H]citalopram Ki ± SEM
Values of Ki strictly less than 1000 nM map to class 1, and values of at least 1000 nM map to class 0.

Example entries begin here.
CN1C2CCC1[C@@H](CO)[C@@H](OC(c1ccc(F)cc1)c1ccc(F)cc1)C2 (some centres unmarked): class 1
C=C[C@@H]1C2CCC(C[C@@H]1OC(c1ccc(F)cc1)c1ccc(F)cc1)N2C (some centres unmarked): class 0
COC(=O)[C@@H]1C2CCC(C[C@@H]1OC(c1ccc(F)cc1)c1ccc(F)cc1)N2C (some centres unmarked): class 1
CCCCN1C2CCC1[C@@H](C(=O)OCC)[C@@H](OC(c1ccc(F)cc1)c1ccc(F)cc1)C2 (some centres unmarked): class 0
CN1[C@@H]2CC[C@H]1[C@H](COC(=O)CCCc1ccc([N+](=O)[O-])cc1)[C@@H](OC(c1ccc(F)cc1)c1ccc(F)cc1)C2: class 0
COC(=O)/C=C/[C@@H]1C2CCC(C[C@@H]1OC(c1ccc(F)cc1)c1ccc(F)cc1)N2C (some centres unmarked): class 1
C=CCN1C2CCC1[C@@H](C(=O)OCC)[C@@H](OC(c1ccc(F)cc1)c1ccc(F)cc1)C2 (some centres unmarked): class 0
CCOC(=O)[C@@H]1C2CCC(C[C@@H]1OC(c1ccc(F)cc1)c1ccc(F)cc1)N2 (some centres unmarked): class 0

Exam item: Identify whether the compound COC(=O)CC[C@@H]1C2CCC(C[C@@H]1OC(c1ccc(F)cc1)c1ccc(F)cc1)N2C (some centres unmarked) records Ki below 1000 nM.
Marked response: class 0

Exam item: Identify whether the compound CCOC(=O)[C@@H]1C2CCC(C[C@@H]1OC(c1ccc(F)cc1)c1ccc(F)cc1)N2C (some centres unmarked) records Ki below 1000 nM.
Marked response: class 0

Exam item: Identify whether the compound CN1C2CCC1[C@@H](COC(=O)CCCc1ccc(N)cc1)[C@@H](OC(c1ccc(F)cc1)c1ccc(F)cc1)C2 (some centres unmarked) records Ki below 1000 nM.
Marked response: class 0
